Listed below: kon values for each entry.
Biological target: T1, extracellular domain of cyno ILT3 (cynoILT3-ECD) (cynomolgus monkey)
T1 chain: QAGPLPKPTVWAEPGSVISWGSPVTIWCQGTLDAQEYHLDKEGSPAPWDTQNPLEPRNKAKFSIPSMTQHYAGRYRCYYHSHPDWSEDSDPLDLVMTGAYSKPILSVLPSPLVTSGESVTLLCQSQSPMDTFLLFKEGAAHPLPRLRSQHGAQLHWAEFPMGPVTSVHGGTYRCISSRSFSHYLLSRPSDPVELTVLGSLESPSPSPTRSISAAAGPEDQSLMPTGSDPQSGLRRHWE
Test: SPR (Biacore), antibody captured via anti-Fc on CM5 chip, soluble ILT3-ECD injected, 37 C
Entry rule: numbers only, all in M⁻¹ s⁻¹.

Any idea what its kon is? The binder is anti-ILT3 antibody 48A6 (antibody, V domains shown, Mouse monoclonal antibody from hybridoma) VH: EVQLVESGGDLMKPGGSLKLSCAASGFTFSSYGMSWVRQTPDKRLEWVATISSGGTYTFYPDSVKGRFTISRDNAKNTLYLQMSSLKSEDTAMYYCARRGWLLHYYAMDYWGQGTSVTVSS VL: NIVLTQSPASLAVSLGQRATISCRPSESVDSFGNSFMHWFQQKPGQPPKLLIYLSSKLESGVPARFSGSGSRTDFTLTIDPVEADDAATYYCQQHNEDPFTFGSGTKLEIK
1.4e+07

How about anti-ILT3 antibody 5A7 (antibody, V domains shown, Mouse monoclonal antibody from hybridoma) VH: EVKLVESGGGLVKPGGSLKLSCAASGFTFSSYGMSWVRQTPEKRLEWVATISGGGSYTNYPDSVKGRLTISRDNAKKNLYLEMSSLRSEDTALYYCARREWRMTLYAMDYWGQGTSVTVSS VL: NIVLTQSPASLAVSLGQRATISCRASESVDSYGNSFMHWYQQKPGQAPKLLIYLTSNLESGVPARFSGSGSRTDFTLTIDPVEADDAATYYCQQNNEDPFTFGSGTKLEIK ?
3.3e+06

// same read-out, input: anti-ILT3 antibody 16C5 (antibody, V domains shown, Mouse monoclonal antibody from hybridoma) VH: EVQLQQSGPELVKPGASVKISCKASGYTFTDYNMDWVKQSHGKSLEWIGYIYPSNGGTGYNQKFKSKATLTVDKSSNTAYMELHSLTSEDSAVYYCARVPYYDYLYYYAMDYWGQGTSVTVSS VL: QIVLSQSPAILSASPGEKVTMACRASSSVSFMHWYQQKPGSSPQPWIYATSNLASGVPARFSGSGSGTSYSLTISRVEAEDAATYYCQQWSTNPYMYTFGGGTKLEIK
290000

Also check anti-ILT3 antibody 3A3 (antibody, V domains shown, Mouse monoclonal antibody from hybridoma) VH: QVQLKESGPGLVAPSQSLSITCTVSGFSLTSYGVHWVRQPPGKGLEWLGVIWPGGTINYNSALMSRLSISKDNSKSQVFLKLNSLQTDDTAMYYCASDKYDGGWFAYWGQGTLVTVSA VL: DIVMTQSQKFMSTSVGDRVSITCKASQNVRTAVAWYQQKPGQSPEALIYLASNRHTGVPDRFTGSGSGTDFSLSISNVQSEDLADYFCLQHLNYPLTFGSGTKLEIK
3.4e+06

Further cases:
# kon lookup, item anti-ILT3 antibody 12A12 (antibody, V domains shown, Mouse monoclonal antibody from hybridoma) VH: EVQLQQSGPELVKPGASVKISCKASGYTFTDYNMDWVKQSHGKSLEWIGYIYPNNGGTGYNQKFNSKATLTVDKSSSTAYMELHSLTSEDSAVYYCASSPYYDYVGSYAMDYWGQGTSVTVSS VL: QIVLTQSPAIMSASLGERVTMTCTASSSVSSSYLHWYQQKPGSSPKLWIYSTSNLASGVPARFSGSGSGTSYSLTISSMEAEDAATYYCHQYHRSPRTFGGGTKLEIK
150000

Same question, anti-ILT3 antibody 45G10 (antibody, V domains shown, Mouse monoclonal antibody from hybridoma) VH: EVQLVESGGGLVKPGGSLKLSCAASGFTFSDYGMHWVRQAPEKGLEWVAYIFSGSSTIYYADTVKGRFTISRDNAKNTLFLQMTSLRSEDTAMYYCARADGRGAMDYWGQGTSVTVSS VL: DVQMTQTTSSLSASLGDRVTISCRASQDISKFLNWYQQKPDGTVTLLIYYTSRLHSGVPSRFSGSGSGTDYSLTISNLDQEDIATYFCQQGNTLPWTFGGGTKLEIK this time
150000

anti-ILT3 antibody 53F10 (antibody, V domains shown, Mouse monoclonal antibody from hybridoma) VH: EVQVVESGGGLVKPGGSLKLSCAASGFTFSDYGMHWVRQAPEKGLEWVAYISTGIITVYYADTVKGRFTMSRDNAKNTLFLQMTSLRSEDTAIYYCARADGRGAMDYWGQGTSVIVSS VL: DIQMTQTTSSLSASLGDRVTISCRASQDISNFLNWYQQKPDGTVTLLIYYTSRLHSGVPSRFSGSGSGTDYSLTISNLEQEDFATYFCQQGNTLPWTFGGGTKLEIK ?
590000
